Measured Ki, listed per entry for reference.
# subject-of-test: Signal transducer and activator of transcription 3 (Homo sapiens)
# Sequence (P40763 whole entry, the tested form may be a part): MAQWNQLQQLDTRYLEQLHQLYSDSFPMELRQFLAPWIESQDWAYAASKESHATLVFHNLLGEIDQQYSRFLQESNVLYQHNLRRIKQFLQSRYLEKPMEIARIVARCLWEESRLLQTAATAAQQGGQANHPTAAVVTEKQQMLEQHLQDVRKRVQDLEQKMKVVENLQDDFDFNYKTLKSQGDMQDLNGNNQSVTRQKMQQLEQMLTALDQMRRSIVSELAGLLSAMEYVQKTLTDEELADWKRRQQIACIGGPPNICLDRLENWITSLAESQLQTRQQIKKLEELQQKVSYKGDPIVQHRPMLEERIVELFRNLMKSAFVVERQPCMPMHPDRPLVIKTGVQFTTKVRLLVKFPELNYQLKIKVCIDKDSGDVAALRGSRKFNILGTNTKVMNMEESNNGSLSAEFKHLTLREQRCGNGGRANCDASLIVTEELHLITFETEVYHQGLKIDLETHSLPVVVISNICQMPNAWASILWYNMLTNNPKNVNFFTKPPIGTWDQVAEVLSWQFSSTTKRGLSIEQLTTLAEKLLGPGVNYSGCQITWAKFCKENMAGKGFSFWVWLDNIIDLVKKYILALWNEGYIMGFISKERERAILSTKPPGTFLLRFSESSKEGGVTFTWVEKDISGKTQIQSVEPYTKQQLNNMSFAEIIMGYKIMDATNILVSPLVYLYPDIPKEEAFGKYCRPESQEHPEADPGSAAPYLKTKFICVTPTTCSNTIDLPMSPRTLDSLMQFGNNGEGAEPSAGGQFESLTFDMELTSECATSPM
# measurement-protocol: Binding affinity to recombinant human His/SUMO-tagged STAT3 (127 to 688 residues) expressed in Escherichia coli Rosetta (DE3) incubated for 1 hr by fluorescence polarization assay
Number only, in µM; omit the unit.

# annotated cases, reported Ki shown
# assay system Signal transducer and activator of transcription 3 (Homo sapiens): give Ki of `CC(=O)N1CC[C@H]2CC[C@@H](C(=O)N[C@@H](CCC(N)=O)C(=O)NC(c3ccccc3)c3ccccc3)N2C(=O)[C@@H](NC(=O)/C=C(\C)c2ccc(C(F)(F)P(=O)(O)O)cc2)C1`
0.164

# assay system Signal transducer and activator of transcription 3 (Homo sapiens): give Ki of `CN1CC[C@H]2CC[C@@H](C(=O)N[C@@H](CCC(N)=O)C(=O)NCc3ccccc3)N2C(=O)[C@@H](NC(=O)c2cc3cc(C(F)(F)P(=O)(O)O)ccc3[nH]2)C1`
0.014

# assay system Signal transducer and activator of transcription 3 (Homo sapiens): give Ki of `CC(=O)N1CC[C@H]2CC[C@@H](C(=O)N[C@@H](CCC(N)=O)C(=O)NC(c3ccccc3)c3ccccc3)N2C(=O)[C@@H](NC(=O)c2cc3cc(OP(=O)(O)O)ccc3[nH]2)C1`
0.033

# assay system Signal transducer and activator of transcription 3 (Homo sapiens): give Ki of `CC(=O)N1CC[C@H]2CC[C@@H](C(=O)N[C@@H](CCC(N)=O)C(=O)NC(c3ccccc3)c3ccccc3)N2C(=O)[C@@H](NC(=O)c2cc3cc(C(F)(F)P(=O)(O)O)ccc3[nH]2)C1`
0.014

Now let's try a different one.
# assay system Signal transducer and activator of transcription 3 (Homo sapiens): give Ki of `CN1CC[C@H]2CC[C@@H](C(=O)N[C@@H](CCC(N)=O)C(=O)NC(c3ccccc3)c3ccccc3)N2C(=O)[C@@H](NC(=O)c2cc3cc(C(F)(F)P(=O)(O)O)ccc3[nH]2)C1`
0.012

====

# subject-of-test: UniProtKB P40763
# measurement-protocol: Binding affinity to recombinant human His/SUMO-tagged STAT3 (127 to 688 residues) expressed in Escherichia coli Rosetta (DE3) incubated for 1 hr by fluorescence polarization assay
Measured Ki, listed per entry for reference.
Number only, in nM; omit the unit.

# annotated cases, reported Ki shown
For the compound `NC(=O)CC[C@H](NC(=O)[C@@H]1CC[C@@H]2CCCC[C@H](NC(=O)c3cc4cc(OP(=O)(O)O)ccc4[nH]3)C(=O)N21)C(=O)NCc1ccccc1` , give its measured Ki value.
25

For the compound `CC(=O)N1CC[C@H]2CC[C@@H](C(=O)N[C@@H](CCC(N)=O)C(=O)NC(c3ccccc3)c3ccccc3)N2C(=O)[C@@H](NC(=O)c2cc3cc(CP(=O)(O)O)ccc3[nH]2)C1` , give its measured Ki value.
584

For the compound `CC(=O)N1CC[C@H]2CC[C@@H](C(=O)N[C@@H](CCC(N)=O)C(=O)NCc3ccccc3)N2C(=O)[C@@H](NC(=O)c2cc3cc(C(F)(F)P(=O)(O)O)ccc3[nH]2)C1` , give its measured Ki value.
14

Now let's try a different one.
For the compound `NC(=O)CC[C@H](NC(=O)[C@@H]1CC[C@@H]2CCCC[C@H](NC(=O)c3cc4cc(C(F)(F)P(=O)(O)O)ccc4[nH]3)C(=O)N21)C(=O)NCc1ccccc1` , give its measured Ki value.
7
